In this section, each of the variants is paired with its reported protein stability index.
B1: CHIT1 (parent)
chain: CSWKGATKQRIQDQKVPYIFRDNQ

Variants of: B1
Test: protein stability index of a GFP-peptide fusion (GPS, HEK-293T) (PSI 1-6); higher = more stable;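 note: lentivirally expressed fusions sorted by FACS into six bins by GFP to DsRed ratio, PSI derived from sequencing read proportions per bin multiplied by bin number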
Settings: c terminus: a fixed tail appended
Answer with a number only.

Input `Q24W` . Output protein stability index: 1.3

Input `P17A` . Output protein stability index: 2.64

Input `T7C` . Output protein stability index: 2.29

Input `W3V` . Output protein stability index: 3.46

Input `W3Y` . Output protein stability index: 3.04

New cases:
Input `R21T` . Output protein stability index: 2.99

Input `K8Y` . Output protein stability index: 2.4

Input `C1W` . Output protein stability index: 2.26

Input `Q12H` . Output protein stability index: 2.09

Input `K8L` . Output protein stability index: 2.77

Input `S2F` . Output protein stability index: 3.22

Input `Y18D` . Output protein stability index: 3.5

Input `R21Q` . Output protein stability index: 2.64

Input `W3C` . Output protein stability index: 2.06

Cited source: the supplement of paper PMC10567573
